# Test system: LOX IMVI
# methodDescription: NCI tumour cell line growth inhibition, 48 h
Calls of active or inactive are those of the source. Rule as the data show it: active = GI50 up to about 1.1 µM and inactive = higher.
readoutKind: GI50

NC1CNC(=O)c2c(Cl)sc(Cl)c21 (stereo unspecified): > 100 µM (inactive)
COC(=O)c1cc(OS(=O)(=O)C(F)(F)F)c(=O)n2c1CCCC2: > 100 µM (inactive)
C=C(C)C(=O)OC1C(C(C)CCCO)=C(CO)CC2OC(=O)C(=C)C21 (stereo unspecified): 10.1 µM (inactive)
COc1cccc2c1C(=O)c1c(O)c3c(c(O)c1C2=O)CC(O)(C(C)=O)CC3O (stereo unspecified): 1.63 µM (inactive)
O=c1c2c(F)c(F)c(F)c(F)c2sc2nccn12: 12.3 µM (inactive)

Lab note: next compound to report on.
Prompt line: Report the value of GI50 obtained on LOX IMVI for COCC1N=C(c2ccc(OC)c(OCc3ccccc3)c2OC)O[C@H]1c1ccccc1 (stereo partly specified) .
Response line: 13.9 µM (inactive)

====

Reported values of GI50 for individual entries
# Test system: SF-268
# methodDescription: NCI tumour cell line growth inhibition, 48 h
Calls of active or inactive are those of the source. Rule as the data show it: active = GI50 up to about 1.1 µM and inactive = higher.

In the examples that follow, each entry is paired with its recorded GI50.
O=[N+]([O-])C(/C=C(\Cl)[N+](=O)[O-])=C(N1CCOCC1)N1CCOCC1: 35.5 µM (inactive)
c1cc2c(cnc3cscc32)s1: > 100 µM (inactive)
CC1NOC(=O)C1/N=N/c1ccccc1Cl (stereo unspecified): 35.1 µM (inactive)
O=C(Nc1ccc2c(c1)oc(=O)c1ccccc12)C(Cl)Cl: > 100 µM (inactive)
C=C1C(=O)OCC2C(C(=O)O)=CC3C(C)C(C)=CC123 (stereo unspecified): 9.46 µM (inactive)

Lab note: next compound to report on.
Prompt line: Report the value of GI50 obtained on SF-268 for Cn1c2c(c3ccccc31)CC(=O)N1CCCC(C1)CC21OCCO1 (stereo unspecified) .
Response line: > 100 µM (inactive)

====

# System: MCF7
# methodDescription: NCI tumour cell line growth inhibition, 48 h
Active and inactive are the calls of the source. Rule as the data show it: active = GI50 up to about 1.1 µM and inactive = higher.
Reported values of GI50 for individual entries

C=CCNC(=O)NNC(O)(C(=O)OCC)C(F)(F)F (centres undefined): > 100 µM (inactive)
CCOC(=O)C1=COC(C)(c2ccccc2)CC1=O (centres undefined): > 100 µM (inactive)

Prompt line: // Input: C=C1[C@@](C)([C@@H]2CCCS2)[C@H]2C(C)=C[C@]1(C)n1c(=O)n(-c3ccccc3)c(=O)n12 . Output its GI50 only.
Response line: > 100 µM (inactive)

Prompt line: // Input: CCCCn1c(C)c(C(=O)CC)c(C(=O)NCCN2CCN(c3ccccc3Cl)CC2)c1C . Output its GI50 only.
Response line: 18.8 µM (inactive)

====

Reported values of GI50 for individual entries
# System: HOP-18
# methodDescription: NCI tumour cell line growth inhibition, 48 h
Calls of active or inactive are those of the source. Cut-off read from the data, not from the text of the source: active = GI50 up to about 1.1 µM and inactive = higher.

In the examples that follow, each entry is paired with its recorded GI50.
CCCCNC(=O)OCC(COc1ccccc1OC)OC(=O)NCCCC (stereo unspecified): 39.5 µM (inactive)
CCCn1cc2c(SC)nc(SC)nc2n1: > 100 µM (inactive)

Prompt line: // Input: CCOC(=O)N1CCc2cc(OC)c(OC)cc2/C1=C\c1ccc(OC)c(OC)c1 . Output its GI50 only.
Response line: 29.5 µM (inactive)

Prompt line: // Input: COC(=O)C1=C(c2ccc(OC)c(OC)c2)OC(c2cc(OC)c(OC)c(OC)c2)C1 (stereo unspecified) . Output its GI50 only.
Response line: 61.7 µM (inactive)

Prompt line: // Input: CC1CC(c2ccc([N+](=O)[O-])cc2)=Nc2ccccc2S1 (stereo unspecified) . Output its GI50 only.
Response line: > 100 µM (inactive)

Prompt line: // Input: O=C1c2ccccc2C(=O)N1CCn1nc(-c2ccccc2)cc(-c2ccccc2)c1=O . Output its GI50 only.
Response line: 42.6 µM (inactive)

Prompt line: // Input: CCCCCCCCCCCC(=O)OCC1OC(n2cc(F)c(=O)[nH]c2=O)C(N)C(O)C1O (stereo unspecified) . Output its GI50 only.
Response line: 88.9 µM (inactive)

Prompt line: // Input: CN(C)C(=O)/C=C/c1c[nH]c(=O)[nH]c1=O . Output its GI50 only.
Response line: > 500 µM (inactive)

Prompt line: // Input: COCCOCCOCCOc1cccc2c1C(=O)c1cccc(OCCOCCOCCOC)c1C2=O . Output its GI50 only.
Response line: > 100 µM (inactive)

Prompt line: // Input: COc1ccc(C)cc1C1CCC(=O)O1 (stereo unspecified) . Output its GI50 only.
Response line: > 100 µM (inactive)

Prompt line: // Input: CC(=O)OC1COC(n2c(=S)n(-c3ccccc3)c(=O)c3cc(Br)ccc32)C(OC(C)=O)C1OC(C)=O (stereo unspecified) . Output its GI50 only.
Response line: > 100 µM (inactive)
